These measurements were taken from ChEMBL document CHEMBL1139731.

// Ki lookup, one value per entry
target: Adenosine receptor A1 (Homo sapiens); assay: Displacement of [3H]DPCPX from recombinant adenosine A1 receptor
endpointLabel: Ki

Fc1ccc(CNc2nc(-c3ccccc3)cc(C(F)(F)F)n2)cc1 | > 10 µM
Fc1ccc(CNc2nc(-c3cccs3)cc(C(F)(F)F)n2)cc1 | > 10 µM
COc1cc(-c2cc(-c3ccc(O)cc3)nc(N)c2C#N)ccc1O | 0.094 µM (antagonist)
CSc1nc(N)nc(-c2cccc(-c3ccc4[nH]ccc4c3)c2)n1 | 0.218 µM (antagonist)

====

Molecular target: Adenosine receptor A1 (Homo sapiens, UniProt P30542)
Sequence (P30542 whole entry): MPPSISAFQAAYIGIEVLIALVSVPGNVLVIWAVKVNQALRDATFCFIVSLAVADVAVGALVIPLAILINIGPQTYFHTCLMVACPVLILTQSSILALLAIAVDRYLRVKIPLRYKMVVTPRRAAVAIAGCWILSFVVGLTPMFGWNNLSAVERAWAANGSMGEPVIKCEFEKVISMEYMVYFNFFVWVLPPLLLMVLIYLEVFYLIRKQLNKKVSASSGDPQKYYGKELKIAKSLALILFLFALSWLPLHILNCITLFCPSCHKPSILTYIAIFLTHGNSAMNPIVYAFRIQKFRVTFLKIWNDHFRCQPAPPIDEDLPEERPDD
Assay: Displacement of [3H]DPCPX from recombinant adenosine A1 receptor
// Ki lookup, one value per entry
endpointLabel: Ki

CCOc1cc(-c2cc(-c3ccc(O)cc3)nc(N)c2C#N)ccc1O | 42 nM (antagonist)
Fc1ccc(CNc2nc(-c3ccc(Cl)cc3)cc(C(F)(F)F)n2)cc1 | > 10000 nM
N#Cc1c(-c2ccccc2Cl)cc(-c2ccccc2)nc1N | 239 nM (antagonist)
Cc1ccc(-c2cc(-c3ccccc3)nc(N)c2C#N)cc1 | 274 nM (antagonist)
COc1ccc(-c2cccc(-c3nc(N)nc(SC)n3)c2)cn1 | 840 nM (antagonist)
N#Cc1c(-c2ccc(Cl)cc2)cc(-c2ccccc2)nc1N | 192 nM (antagonist)
N#Cc1c(-c2ccc(F)cc2)cc(C2CC2)nc1N | 865 nM (antagonist)
N#Cc1c(-c2ccc(F)cc2)cc(-c2ccccc2)nc1N | 59 nM (antagonist)
N#Cc1c(-c2ccc(Cl)c(Cl)c2)cc(-c2cccnc2)nc1N | > 10000 nM
N#Cc1c(-c2ccc(Cl)cc2)cc(-c2ccccc2Cl)nc1N | 1740 nM (antagonist)
CCSc1nc(N)nc(-c2ccccc2)n1 | 67 nM (antagonist)
COc1cccc(-c2cc(C(F)(F)F)nc(NCc3ccc(F)cc3)n2)c1 | > 10000 nM
